Test system: Beta-TC6
Assay text: Percent efficacy for inhibition of glucose stimulated insulin release from beta TC6 cells
Assay type: functional, Mus musculus
Readout label: Efficacy (%)

> print(dat)
                           molecular.string  readout.label  measured
1  COc1ccc(Oc2ccc([N+](=O)[O-])cc2C(=O)Nc2ccc(F)cc2)cc1       Efficacy        52
2  COc1ccc(Oc2ccc([N+](=O)[O-])cc2C(=O)Nc2cccc(S(N)(=O)=O)c2)cc1       Efficacy        31
3  COc1ccc(Oc2ccc([N+](=O)[O-])cc2C(=O)Nc2ccc(S(N)(=O)=O)cc2)cc1       Efficacy        79
